Taken from patent US6447817B1.

Measured Average swelling ratio (%), listed per entry.
- Tested on: serotonin swelling of rat
- test details: Inhibition of serotonin swelling of rat sole after application to the skin
- Type: in vivo
- experimental parameters: rat right sole; 1.5 g of 2% xanthan gum solution with 3% test sample applied 2 h before serotonin injection; measured 30 min after injection; control 30
observable: Average swelling ratio (%)

> print(dat)
                                   molecule                  observable  observed.measurement
1  CCCCCCCCCCCCOC1=C(O)C(=O)O[C@@H]1[C@@H](O)CO  Average swelling ratio (%)                    14
2  O=C(O)COc1nn(Cc2ccccc2)c2ccccc12 [Bendazac, reference compound]  Average swelling ratio (%)                    30
3        CCOC1=C(O)C(=O)O[C@@H]1[C@@H](O)CO  Average swelling ratio (%)                    12
4  CCCCCCCCCCCCC(=O)COC1=C(O)C(=O)O[C@@H]1[C@@H](O)CO  Average swelling ratio (%)                    13
5  CCCCCCCCCCCCCCCCCCOC(=O)COC1=C(O)C(=O)O[C@@H]1[C@@H](O)CO  Average swelling ratio (%)                    15
6  O=C1O[C@H]([C@@H](O)CO)C([O-])=C1OP(=O)(O)O.O=C1O[C@H]([C@@H](O)CO)C([O-])=C1OP(=O)(O)O.[Mg+2]  Average swelling ratio (%)                    28
